tested on: CD8+ T cells from patient UC-98; test: ELISPOT with presensitized CD8+ T cells from patient UC-98; type: cell-based, human; conditions: T cells presensitized with p80-109; histocompatible B-EBV targets pulsed with peptides at 10 μM; FIG. 10A, 10B
MEASURE: recognition in ELISPOT

>>> test_value("YLAMPFATPMEAELARRS (listed as Homo sapiens) [p91-108, NY-ESO-1 18-mer peptide]")
"recognized"
>>> test_value("SRLLEFYLAMPFATPMEA (listed as Homo sapiens) [p85-102, NY-ESO-1 18-mer peptide]")
"recognized"

Provenance of the data: patent US20030175250A1
